Each entry below carries its reported pIC50.
Molecular target: PIK3CB;PIK3CG;PIK3CD;PIK3CA (human) (UniProt P48736)
Experiment: Inhibition of PIK3CA/PIK3CB/PIK3CD/PIK3CG Kinase Activity
pIC50: −log10 of the molar value.
ENDPOINT_NAME: pIC50

| COMPOUND | NUMERIC_READOUT |
| --- | --- |
| COc1ccc(CCO)c(Nc2nc3ccccc3nc2NS(=O)(=O)C2CCCCC2)c1 | 7.24 |
| COc1ccc(CC2CCOCC2)c(Nc2nc3ccccc3nc2NS(C)(=O)=O)c1 | 6.89 |
| COc1ccc(CCO)c(Nc2nc3ccccc3nc2NS(=O)(=O)c2ccc(NC(=O)CO)cc2)c1 | 7.19 |
| COc1ccc(CCCO)c(Nc2nc3ccccc3nc2NS(=O)(=O)C(C)C)c1 | 7.14 |
| COc1ccc(CCO)c(Nc2nc3ccccc3nc2NS(C)(=O)=O)c1 | 7.02 |
| COC(=O)c1ccc(OC)cc1Nc1nc2ccccc2nc1NS(=O)(=O)c1cccnc1 | 7.06 |
| COc1ccc(CC(O)CO)c(Nc2nc3ccccc3nc2NS(=O)(=O)c2cn(C)cn2)c1 (configuration not stated) | 6.92 |
